# target-under-test: hFcRn (extracellular domain of the FcRN) (Homo sapiens)
# Construct: made in house
# Sequence (P55899 24-297 limits assumed): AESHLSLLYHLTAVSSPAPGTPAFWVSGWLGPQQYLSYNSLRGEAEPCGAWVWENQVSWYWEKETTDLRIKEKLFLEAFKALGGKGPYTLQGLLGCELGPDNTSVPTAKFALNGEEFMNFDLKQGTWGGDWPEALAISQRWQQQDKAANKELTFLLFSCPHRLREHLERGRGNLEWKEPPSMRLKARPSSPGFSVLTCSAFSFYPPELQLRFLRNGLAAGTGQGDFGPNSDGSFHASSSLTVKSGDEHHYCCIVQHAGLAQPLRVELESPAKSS
# Sequence (P61769 21-119 partner): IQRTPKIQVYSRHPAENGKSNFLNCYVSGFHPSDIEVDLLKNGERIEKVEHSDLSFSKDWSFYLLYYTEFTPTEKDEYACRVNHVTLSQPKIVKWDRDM
# protocol-text: FcRn binding by surface plasmon resonance (Biacore)
# test-parameters: pH 5.5
Listed substances paired with reported pKd
Note on units: pKd is unitless, being -log10 of a concentration expressed in mol/L.

Answered cases to consult:
GLP-2 peptibody M: GLP-2[A2G]-GGGGSGGGGS linker-IgG1 Fc (LALA); SEQ ID NO: 25 | 8.74
GLP-2 peptibody K: GLP-2[A2G]-GGGGSGGGGSGGGGS linker-IgG1 Fc (LALA) with C-terminal lysine; SEQ ID NO: 10 | 8.71

Here is the next item to consider.
Recorded pKd for GLP-2 peptibody L: GLP-2[A2G]-GGGGGGG linker-IgG1 Fc (LALA); SEQ ID NO: 22 , please? 8.76
